molecular target: Pa AmpC (Pseudomonas aeruginosa); assay: Ki, nitrocefin cleavage by purified enzyme, Pa AmpC; format: biochemical; settings: nitrocefin reporter substrate; read-out: Ki (Pa AmpC, NCF)
Sequence (P24735 27-397): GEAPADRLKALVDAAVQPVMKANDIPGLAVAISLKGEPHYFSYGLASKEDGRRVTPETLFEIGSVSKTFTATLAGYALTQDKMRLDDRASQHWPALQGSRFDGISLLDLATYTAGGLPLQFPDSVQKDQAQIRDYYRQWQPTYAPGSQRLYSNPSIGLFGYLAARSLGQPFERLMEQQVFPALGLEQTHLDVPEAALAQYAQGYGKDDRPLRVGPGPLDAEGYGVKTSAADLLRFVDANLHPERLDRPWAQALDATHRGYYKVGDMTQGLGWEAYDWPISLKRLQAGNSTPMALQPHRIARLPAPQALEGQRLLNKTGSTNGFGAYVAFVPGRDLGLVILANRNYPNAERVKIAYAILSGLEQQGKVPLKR
quantity kind: Ki

// sample CSCC(=O)N[C@@H]1Cc2ccc(F)c(C(=O)O)c2OB1O [Compound 31] , its Ki was > 10 nM

Lookup result for CSCC(=O)N[C@H]1Cc2cccc(C(=O)O)c2OB1O [A, reference compound] ; measured Ki: 1 to 10 nM

For record CSCC(=O)N[C@H]1Cc2ccc(OCC(=O)O)c(C(=O)O)c2OB1O [Compound 33] the listed Ki is > 10 nM

What the record says about Nc1nnc(C(=O)N[C@H]2Cc3cccc(C(=O)O)c3OB2O)s1 [H, reference compound] : Ki is < 1 nM

Please fill in: Ki reported for CSCC(=O)N[C@H]1Cc2ccc(SCC(N)=O)c(C(=O)O)c2OB1O [Compound 22] = > 10 nM
